Consider the following molecules and their measured log K′Ba (conditional stability constant) readings.
ASSAY_PROTOCOL: Thermodynamic stability constants of Ba^2+ complexes by pH-potentiometry
Type: binding
CONDITION_LABEL: pH 7.4, 25° C., I = 0.1M KCl; calculated from protonation and stability constants
MEASURED_ENDPOINT: log K′Ba (conditional stability constant)

>>> df
                                   molecule  endpoint_result
0  O=C(O)c1cccc(CN2CCOCCOCCN(Cc3ccc4cccc(O)c4n3)CCOCCOCC2)n1            10.05
1  O=C(O)c1cccc(CN2CCOCCOCCN(Cc3cccc(C(=O)O)n3)CCOCCOCC2)n1            10.74
2  O=S(=O)(O)c1ccc(O)c2nc(CN3CCOCCOCCN(Cc4ccc5c(S(=O)(=O)O)ccc(O)c5n4)CCOCCOCC3)ccc12             8.76
3  O=C(O)CN1CCN(CC(=O)O)CCN(CC(=O)O)CCN(CC(=O)O)CC1 [DOTA, reference compound]             5.72

----------
Consider the following compounds and their measured log K′Ca (conditional stability constant) readings.
ASSAY_PROTOCOL: Thermodynamic stability constants of Ca^2+ complexes by pH-potentiometry
Assay type: binding
CONDITION_LABEL: pH 7.4, 25° C., I = 0.1M KCl; calculated from protonation and stability constants
Description: Potentiometric measurements were carried out using a titrator equipped with a combination electrode and an exchange unit with an automatic burette (10 mL). […] Data within the pH ranges of 2.5-3.2 and 10.8-11.2 were analyzed using software to obtain the standard electrode potential (E0) and slope factor. […] ICP standards of calcium, strontium, and barium in dilute HNO3 were employed in the titrations. […] The data were analyzed using a Gran plot (Gran, G. Analyst 1952, 77, 661-671). […]
MEASURED_ENDPOINT: log K′Ca (conditional stability constant)

>>> print(df.to_string())
                                   compound  endpoint_result
0  O=C(O)c1cccc(CN2CCOCCOCCN(Cc3cccc(C(=O)O)n3)CCOCCOCC2)n1             5.42
1  O=C(O)c1cccc(CN2CCOCCOCCN(Cc3ccc4cccc(O)c4n3)CCOCCOCC2)n1             3.94
2  O=S(=O)(O)c1ccc(O)c2nc(CN3CCOCCOCCN(Cc4ccc5c(S(=O)(=O)O)ccc(O)c5n4)CCOCCOCC3)ccc12             3.19
3  O=C(O)CN1CCN(CC(=O)O)CCN(CC(=O)O)CCN(CC(=O)O)CC1 [DOTA, reference compound]            10.34

----------
ASSAY_PROTOCOL: Thermodynamic stability constants of Sr^2+ complexes by pH-potentiometry
Format: binding
CONDITION_LABEL: pH 7.4, 25° C., I = 0.1M KCl; calculated from protonation and stability constants
MEASURED_ENDPOINT: log K′Sr (conditional stability constant)

In [3]: df
Out[3]:
                                   molecule  endpoint_result
0  O=S(=O)(O)c1ccc(O)c2nc(CN3CCOCCOCCN(Cc4ccc5c(S(=O)(=O)O)ccc(O)c5n4)CCOCCOCC3)ccc12 [macroquin-SO3]             5.64
1  O=C(O)CN1CCN(CC(=O)O)CCN(CC(=O)O)CCN(CC(=O)O)CC1 [DOTA, reference compound]             8.35
2  O=C(O)c1cccc(CN2CCOCCOCCN(Cc3cccc(C(=O)O)n3)CCOCCOCC2)n1 [macropa]             9.07
3  O=C(O)c1cccc(CN2CCOCCOCCN(Cc3ccc4cccc(O)c4n3)CCOCCOCC2)n1 [macropaquin]             7.54
